What TGI was measured for each of the following?
Test system: RXF 393 renal
Method notes: NCI tumour cell line growth inhibition, 48 h
*1 amine or outer side, *2 acyl side, *3 side chain or, on linkers, in order; H or OH if unused. Where a SMILES comes first, the peptide text is derived from it. [ ]: non-standard residue; d: D form. The star is where a group is joined. X31 = CC(=O)N(C)SCC(N[*:1])C(=O)[*:2]; X47 = CC(=O)N(C)SCC(N*)/C(O)=N\O; Cbz = O=C(OCc1ccccc1)*; Bn = c1ccc(C*)cc1; For = O=C*

Enquiry: For the molecule CC(=O)OC1=c2ccccc2=C(O)C2C1C=NN2C(C)=O (configuration not stated) , what TGI is on record?
Return: > 100 µM

Enquiry: Also Cc1ccccc1NC(=O)C(=O)C(C#N)c1ccc(Cl)cc1 (configuration not stated) ?
Return: > 100 µM

Enquiry: Now try CC(C)(C)NNC(=O)/C(=C/c1ccc([N+](=O)[O-])cc1)NC(=O)c1ccccc1 .
Return: > 100 µM

Enquiry: Query CC(=O)N(C)SCC(NC(=O)C(Cc1ccccc1)NC(=O)OCc1ccccc1)C(=O)NC(Cc1ccccc1)C(=O)NC(Cc1cn(C=O)c2ccccc12)C(=O)NC(CCCCNC(=O)OCc1ccccc1)C(=O)NC(C(=O)NC(CSN(C)C(C)=O)/C(O)=N\O)C(C)OCc1ccccc1 (configuration not stated) (Cbz-F[X31]FW(For)K(Cbz)T(Bn)-X47; configuration not given here) next
Return: > 100 µM

Enquiry: Same for Nc1ncnc2c1ncn2C1OC(COP(=O)(O)O)C(O)C1O (configuration not stated)
Return: > 50 µM

Enquiry: Cool, now CC(=N\N)/C(C)=N/N=C(C)/C(C)=N/N=C(C)/C(C)=N/N=C(C)/C(C)=N/N
Return: > 100 µM

Enquiry: And for CCCCC[C@H](O)/C=C/[C@@H]1[C@@H](C/C=C\CCCC(=O)O)[C@@H](O)C[C@H]1O ?
Return: > 100 µM

Enquiry: # repeat for Cc1cccc(NC(=O)CCc2ccc(N3C(N)=NC(N)=NC3(C)C)cc2)c1
Return: > 100 µM

Enquiry: Same thing, different molecule: Cc1c2c(c(C)n1-c1ccccc1)C(=O)N(CCCCN1CCN(c3ccccc3)CC1)C2=O
Return: > 100 µM

Enquiry: What about this molecule? CC(=O)OC12/C(=N/O)CCCCCC1c1ccccc12 (configuration not stated)
Return: > 100 µM

Enquiry: Try CC1(C)CCC[C@@]2(C)C1CCC1(C)C(CCc3ccoc3)/C(=C/OS(=O)(=O)O)CCC12 (some centres not stated) (tested in a mixture with another compound) next.
Return: > 100 µM

Enquiry: Now the same for OC1[C@H]([C@H]2CCCC[C@@H]2O)CCC[C@@H]1[C@@H]1CCCC[C@H]1O (some centres not stated)
Return: > 100 µM

Enquiry: Please answer likewise for CN(Cc1cnc2nc(N)nc(N)c2n1)c1ccc(C(=O)NC(CCC(=O)O)C(=O)O)cc1C(F)(F)F (configuration not stated)
Return: > 100 µM

Enquiry: // query: COc1cc(C2SC(N)=Nc3c2c(C)nn3C(=O)c2ccccc2O)cc(OC)c1OC (configuration not stated)
Return: > 10 µM

Enquiry: Again, but for O=c1cc(NCCCCCO)[nH]c(=O)[nH]1
Return: > 100 µM

Enquiry: Would you mind doing OC(c1cccc(-n2ccc(C(F)(F)F)n2)c1)c1cnccc1NC1CCCCCC1 (configuration not stated) as well?
Return: 2.74 µM

Enquiry: Queued: CC1(C)CC(=O)C(CCC(=O)/C=C/c2ccccc2)C(=O)C1
Return: > 100 µM

Enquiry: CCNC(=O)[C@@H]1CCCN2C(=O)CC[C@H](NC(=O)[C@H](Cc3ccc(OP(=O)(O)O)cc3)NC(C)=O)C(=O)N12 ?
Return: > 25 µM

Enquiry: Try CC1(C)N=C(N)N=C(N)N1c1cccc(CCCCc2cccc(S(=O)(=O)F)c2)c1 next.
Return: > 100 µM

Enquiry: // next record COc1cc(/C=C/c2ccncc2)cc(OC)c1OC
Return: 99.2 µM

Enquiry: Further, for CC[C@]1(O)CC(OC2CC(N(C)C)C(O)C(C)O2)c2c(cc3c(c2O)C(=O)c2c(O)cccc2C3=O)[C@@H]1C(=O)OC (some centres not stated) ?
Return: 1.76 µM

Enquiry: And then NC(Cc1ccc(S(=O)(=O)O)cc1)C(=O)NC(CCCCNC(=O)NCCCCC(NC(=O)C(N)Cc1ccc(S(=O)(=O)O)cc1)C(=O)NC(Cc1ccc(S(=O)(=O)O)cc1)C(=O)O)C(=O)NC(Cc1ccc(S(=O)(=O)O)cc1)C(=O)O (configuration not stated) , what is it?
Return: > 100 µM

###

Tested on: SK-OV-3 ovarian
Method notes: NCI tumour cell line growth inhibition, 48 h
*1 amine or outer side, *2 acyl side, *3 side chain or, on linkers, in order; H or OH if unused. Where a SMILES comes first, the peptide text is derived from it. [ ]: non-standard residue; d: D form. The star is where a group is joined. X31 = CC(=O)N(C)SCC(N[*:1])C(=O)[*:2]; X47 = CC(=O)N(C)SCC(N*)/C(O)=N\O; Cbz = O=C(OCc1ccccc1)*; Bn = c1ccc(C*)cc1; For = O=C*
Can you tell me TGI for the items I'm about to list?

Enquiry: Record request: TGI value, item Cc1ccc(S(=O)(=O)c2c(N)c3nc4ccccc4n3c3nc4ccccc4nc23)cc1
Return: > 100 µM

Enquiry: Same lookup for NC(=O)NNCc1ccccc1 , please.
Return: > 100 µM

Enquiry: Now try CC(=O)N(C)SCC(NC(=O)C(Cc1ccccc1)NC(=O)OCc1ccccc1)C(=O)NC(Cc1ccccc1)C(=O)NC(Cc1cn(C=O)c2ccccc12)C(=O)NC(CCCCNC(=O)OCc1ccccc1)C(=O)NC(C(=O)NC(CSN(C)C(C)=O)/C(O)=N\O)C(C)OCc1ccccc1 (centres undefined) (Cbz-F[X31]FW(For)K(Cbz)T(Bn)-X47; configuration not given here) .
Return: > 100 µM

Enquiry: How about this molecule: Cc1ccc(NC(=O)c2cc3cc(N=Nc4ccc(Br)cc4)ccc3oc2=O)cc1
Return: > 100 µM

###

System: SK-MEL-28 melanoma
Method notes: NCI tumour cell line growth inhibition, 48 h
Can you tell me TGI for the items I'm about to list?

Enquiry: Can you share its TGI? I mean this compound: N#Cc1c(N2CCCC2)nsc1NCc1ccccc1
Return: > 100 µM

Enquiry: Quick one: O=P1(O)C=CC2(CCCC2)O1
Return: > 100 µM

Enquiry: Next record, please: COc1ccc(C(=O)c2cc(OC)c(OC)c(OC)c2)cc1
Return: > 95.8 µM

Enquiry: Next record, please: CC(=O)[C@@H]1[C@@H](OC(=O)CCC(C)COC2OC(CO)C(O)C(O)C2O)C[C@H]2[C@@H]3CC=C4C[C@@H](OC5OC(CO)C(OC6OC(C)C(O)C(O)C6O)C(O)C5OC5OC(C)C(O)C(O)C5O)CC[C@]4(C)[C@H]3CC[C@]12C (some centres not stated)
Return: > 100 µM

Enquiry: Could you do the same for CN(C)c1ccc2c(=O)c3ccccc3oc2n1 , please?
Return: > 100 µM

Enquiry: And what about the compound Cc1cc(N(CCC#N)CCC#N)ccc1/C=C1N=C(/C=C\c2ccccc2)OC\1=O ?
Return: > 100 µM

Enquiry: Repeat with ClCCCN(CCCCl)c1ccc(C=Nc2cccc(Cl)c2)cc1
Return: > 100 µM

Enquiry: What do we get for CCc1nc(N)nc(N)c1-c1ccc(NCCN)c([N+](=O)[O-])c1 ?
Return: > 100 µM

Enquiry: How about O=C(O)c1cc2ccccc2c(N=Nc2ccccc2)c1O ?
Return: > 100 µM

Enquiry: Would you kindly repeat that for CCOC(=O)c1c2c(c(O)c3ccccc3c(O)n(Cc3ccc(OC)cc3)c1C)C(=O)C=CC2=O ?
Return: > 100 µM

Enquiry: Record: CN1N=CSC12C(=O)N(c1ccc(Cl)cc1)C(=O)N2c1ccc(Cl)cc1 (configuration not stated)
Return: > 100 µM

Enquiry: Repeat for the following compound: O=C(Nc1cccc(-n2ccc3c(NC(=O)c4ccccc4)nccc32)c1)c1ccc(N2CCOCC2)c(C(F)(F)F)c1
Return: > 100 µM

###

System: U251 CNS
Method notes: NCI tumour cell line growth inhibition, 48 h
Counter-ions that a name gives are not always drawn. Where a SMILES comes first, the peptide text is derived from it. The star is where a group is joined. Tfa = O=C(C(F)(F)F)*
Field: TGI. Provide a value for each of the compounds that follow.

Enquiry: Name the recorded TGI for N#CN=C(N)c1sc2nc3c(c(-c4ccc(Br)cc4)c2c1N)CCCC3 .
Return: > 100 µM

Enquiry: Please do the same for CC(C)[C@]12O[C@H]1[C@@H]1O[C@]13[C@]1(O[C@H]1C[C@H]1C4=C(CC[C@@]13C)C(=O)OC4)[C@@H]2O as well.
Return: > 100 µM

Enquiry: Likewise for COc1ccccc1NC(=O)c1sc2nc3c(cc2c1N)C(=O)CCC3 ?
Return: > 100 µM

Enquiry: Cool, now O=C(O)CC(NC(=O)C(F)(F)F)C(=O)NC(Cc1ccc(O)cc1)C(=O)O (stereo not drawn) (Tfa-Asp-Tyr-OH; configuration not given here)
Return: > 50 µM

Enquiry: Another: O=C(O)CCNc1ccccc1C(=O)O
Return: > 100 µM
